System: HOP-92 NSCLC
Method Summary: NCI tumour cell line growth inhibition, 48 h; in the data active = GI50 below about 0.43 µM; inactive = the rest
Entry note: the call must match one of active, inactive

Give the logged outcome of this assay for the following molecule: O=c1[nH]c(F)nc2c1ncn2C1OC(CO)C(O)C1O (stereo not drawn) inactive

Give the logged outcome of this assay for the following molecule: `NCCCn1c2c(c3ccc([N+](=O)[O-])cc3c1=O)C(=O)c1cc(F)ccc1-2` active

Give the logged outcome of this assay for the following molecule: `O=c1[nH]c2ccccc2n2cc3ccccc3c12` inactive

###

Kindly state TGI for each of the entries shown.
Test system: OVCAR-3 ovarian
Method Summary: NCI tumour cell line growth inhibition, 48 h

Form entry - test system: OVCAR-3 ovarian; read-out: TGI; compound: `O=C1Oc2cc3c(c4cccc1c24)OCN(c1ccccc1)C3` > 100 µM

Form entry - test system: OVCAR-3 ovarian; read-out: TGI; compound: CCP(=O)(CC)C(Cl)(Cl)C(O)C(Cl)(Cl)Cl (stereo not drawn) > 100 µM

Form entry - test system: OVCAR-3 ovarian; read-out: TGI; compound: `C/C(=C\CNc1ncnc2c1ncn2CCC(=O)OC(C)(C)C)CO` > 100 µM

###

System: MALME-3M melanoma
Method Summary: NCI tumour cell line growth inhibition, 48 h
Assay Metric: TGI

Form entry - test system: MALME-3M melanoma; read-out: TGI; compound: `O=C1C(=C([O-])c2ccccc2)C(=O)c2ccccc21.O=C1C(=C([O-])c2ccccc2)C(=O)c2ccccc21.[Co+2]` > 100 µM

Form entry - test system: MALME-3M melanoma; read-out: TGI; compound: `CC1=NC=C(O)c2ccccc2O1` > 100 µM

Form entry - test system: MALME-3M melanoma; read-out: TGI; compound: COc1ccc(C2CC(c3ccc4ccccc4c3)=NN2c2nc(O)c(C3=c4cc(OC)ccc4=NC3=O)s2)cc1 (stereo unspecified) 0.0655 µM

Form entry - test system: MALME-3M melanoma; read-out: TGI; compound: `Cc1cc(C)nc(NCCC(O)(P(=O)(O)O)P(=O)(O)O)n1` > 100 µM

Form entry - test system: MALME-3M melanoma; read-out: TGI; compound: `CC[C@@H]1CC[C@@H]2[C@H](CC[C@]3(C)[C@@H](OC(C)=O)CC[C@@H]23)[C@H]1C(=O)OC` 33.3 µM

Form entry - test system: MALME-3M melanoma; read-out: TGI; compound: `CCOC(=O)[C@@H](C)C[C@H](Cc1ccccc1)NC(=O)c1csc([C@@H](C[C@H](C(C)C)N(C)C(=O)[C@@H](NC(=O)[C@H]2C[C@H](O)CCN2C)C(C)C)OC(C)=O)n1` > 16.7 µM

Form entry - test system: MALME-3M melanoma; read-out: TGI; compound: C=C1CC(C)(COc2cc(=O)oc3ccccc23)OC1=O (stereo unspecified) 6.6 µM

Form entry - test system: MALME-3M melanoma; read-out: TGI; compound: O=c1[nH]c(F)nc2c1ncn2C1OC(CO)C(O)C1O (stereo unspecified) > 100 µM

Form entry - test system: MALME-3M melanoma; read-out: TGI; compound: NC(CO)c1ccc(OCc2ccccc2)cc1 (stereo unspecified) > 100 µM

Form entry - test system: MALME-3M melanoma; read-out: TGI; compound: `CCCCCCCc1cscc1-c1cscc1Br` > 100 µM

Form entry - test system: MALME-3M melanoma; read-out: TGI; compound: `CC(=O)O[C@H]1CC[C@@]2(C)C(=CC[C@@H]3[C@@H]2CC[C@](C)(c2nnc(C)o2)[C@H]3CC#N)C1` > 100 µM

Form entry - test system: MALME-3M melanoma; read-out: TGI; compound: Cc1c2ccccc2c(C2C3C(=O)N(c4cccc5ccccc45)C(=O)C3ON2Cc2ccc(CC(N)=O)cc2)c2ccccc12 (stereo unspecified) > 50 µM

Form entry - test system: MALME-3M melanoma; read-out: TGI; compound: `CN1CC=C(c2cccn2C)CC1` > 100 µM

Form entry - test system: MALME-3M melanoma; read-out: TGI; compound: C=C1C(=O)c2cc3c(cc2C(c2cc(OC)c(OC)c(OC)c2)[C@@H]1C(=O)O)OCO3 (stereo partly specified) > 100 µM

Form entry - test system: MALME-3M melanoma; read-out: TGI; compound: `FC(F)(F)c1ccc(-c2ncc(-c3ccc(C(F)(F)F)cc3)c(NCc3cc(C(F)(F)F)cc(C(F)(F)F)c3)n2)cc1` 46.3 µM

Form entry - test system: MALME-3M melanoma; read-out: TGI; compound: `O=[N+]([O-])c1ccc(CN=C2NNS(=O)(=O)c3ccccc32)cc1` > 100 µM

Form entry - test system: MALME-3M melanoma; read-out: TGI; compound: `O=C(/C=C/c1nnc2n(Cc3ccccc3)c(=O)c3c4c(sc3n12)CCCC4)c1ccccc1` > 100 µM

Form entry - test system: MALME-3M melanoma; read-out: TGI; compound: `COc1ccc(-c2coc3cc(O)cc(O)c3c2=O)cc1` > 10 µM

Form entry - test system: MALME-3M melanoma; read-out: TGI; compound: CC(Cc1cccc2c1Nc1ccccc1S2)N(C)CCO (stereo unspecified) > 100 µM

Form entry - test system: MALME-3M melanoma; read-out: TGI; compound: O=C1CCCCC1C(O)(C(F)(F)F)C(F)(F)Cl (stereo unspecified) > 10 µM

Form entry - test system: MALME-3M melanoma; read-out: TGI; compound: CCCCCC#COC1CC(C)CC[C@@H]1C(C)C (stereo partly specified) > 100 µM

Form entry - test system: MALME-3M melanoma; read-out: TGI; compound: `C/C(=C\CNc1ncnc2c1ncn2CCC(=O)OC(C)(C)C)CO` > 100 µM

Form entry - test system: MALME-3M melanoma; read-out: TGI; compound: Cc1ccc(NC(=O)/C(=N\NC(N)=S)C(C#N)c2ccccc2C)cc1C (stereo unspecified) > 100 µM

Form entry - test system: MALME-3M melanoma; read-out: TGI; compound: `CCCCCCCCCC/C=C/C=O` > 100 µM

Form entry - test system: MALME-3M melanoma; read-out: TGI; compound: `Brc1ccc(Nc2nc3ccccc3nc2Nc2ccc(Br)cc2)cc1` 4.95 µM

Form entry - test system: MALME-3M melanoma; read-out: TGI; compound: N#CC(/C(=N/NC(N)=S)C(=O)Nc1cccc(Cl)c1)c1ccccc1 (stereo unspecified) > 100 µM

Form entry - test system: MALME-3M melanoma; read-out: TGI; compound: `O=C(CCc1ccc(O)c(O)c1)NCCc1cc(O)c(O)c(O)c1` > 100 µM

Form entry - test system: MALME-3M melanoma; read-out: TGI; compound: CS(=N)(=O)CCC(N)P(=O)(O)O (stereo unspecified) > 100 µM

Form entry - test system: MALME-3M melanoma; read-out: TGI; compound: `CN1c2ccccc2C(=O)NC12CCNCC2` > 100 µM

Form entry - test system: MALME-3M melanoma; read-out: TGI; compound: `N#Cc1ccc(C(C2C(=O)NC(=O)NC2=O)C2C(=O)NC(=O)NC2=O)cc1` > 100 µM

Form entry - test system: MALME-3M melanoma; read-out: TGI; compound: `O=C(CCN1CCC(CCO)CC1)Nc1ccc2c(c1)C(=O)c1ccc(NC(=O)CCN3CCC(CCO)CC3)cc1C2=O` 28.6 µM

Form entry - test system: MALME-3M melanoma; read-out: TGI; compound: COCC12CCC(OC)C34C5CC6(O)C(OC)C=C(C5C6OC(=O)c5ccccc5)C(C(OC)C13)C4N(C)C2 (stereo unspecified) > 100 µM

Form entry - test system: MALME-3M melanoma; read-out: TGI; compound: `N#Cc1c2ccccc2c2nnc3ccc(C(F)(F)F)cc3n12` > 100 µM

Form entry - test system: MALME-3M melanoma; read-out: TGI; compound: C=C1c2[nH]c3ccccc3c2CC(C(=O)O)N1C(O)c1ccc(S(=O)(=O)O)cc1 (stereo unspecified) > 100 µM

Form entry - test system: MALME-3M melanoma; read-out: TGI; compound: [N-]=[N+]=CC(=O)OCC1NC(=O)C(COC(=O)C=[N+]=[N-])NC1=O (stereo unspecified) > 100 µM

Form entry - test system: MALME-3M melanoma; read-out: TGI; compound: C=CCC12CCC(=O)[C@@]1(C)CC=C(O)C2=O (stereo partly specified) > 100 µM
